Attribution: PubChem BioAssay AID179

Below, each entry is listed alongside its reported pIC50.
System: CEM cells HIV-1 protection, formazan growth assay
EXPERIMENTAL_PROTOCOL: NCI AIDS Antiviral Assay
STUDY_CONDITIONS: measured here: growth of uninfected CEM cells
pIC50: −log10 of the molar value.

{"columns": ["CHEMICAL_STRUCTURE", "pIC50"],
 "data": [
  ["Cc1nc(N)c(N2CCN(CN)CC2)c(=O)[nH]1", "< 3.70"],
  ["c1cncc(CSc2nc3ccccc3nc2-c2cccs2)c1", "< 5.81"],
  ["O=c1oc2ccccc2c2nc3cc(Cl)ccc3cc12", "< 4.30"],
  ["Cc1cs/c(=N\\C(P(=O)(O)O)P(=O)(O)O)n1C", "< 4.00"],
  ["O=C1C=C(Nc2ccc(Cl)cc2Cl)c2ccccc2C1=O", "< 5.77"],
  ["CC(=O)Nc1ccc(OC2=CCN(C)CC2)cc1", "< 3.70"]
]}

###

Below, each entry is listed alongside its reported IC50.
Tested on: CEM cells HIV-1 protection, formazan growth assay
EXPERIMENTAL_PROTOCOL: NCI AIDS Antiviral Assay
STUDY_CONDITIONS: measured here: growth of uninfected CEM cells
ENDPOINT: IC50 (µM)

{"columns": ["COMPOUND", "UNITS_TEXT", "QUALIFIER_SIGN", "REPORTED_VALUE"],
 "data": [
  ["C[N+]1(CC(=O)O)C2CCC1CC(O)C2 (stereo not drawn)", "µM", ">", 200],
  ["CC(=O)Nc1c(S(=O)(=O)c2ccccc2)c(C)c(C)n1CCN(C)C", "µM", ">", 200],
  ["N#C[C@H](C(=O)c1ccccc1F)c1nc2ccccc2s1", "µM", "=", 93.3],
  ["CCC(c1nc2ccccc2c(=O)n1NC(=O)C(C)(C)C)C1(O)CCCCC1 (stereo not drawn)", "µM", "=", 107],
  ["Cc1nc(SCC(=O)Nc2ccc(Cl)cc2)c2sc(=S)n(-c3ccccc3)c2n1", "µM", ">", 200],
  ["COc1ccc2cc(C(C)C(=O)N3C(=O)OCC3(C)C)ccc2c1 (stereo not drawn)", "µM", "=", 91.2],
  ["COC(=O)C(=O)/C=C(/O)c1c(C)[nH]c2ccccc12", "µM", ">", 200],
  ["COc1ccc(/C=C/C(=O)c2ccccc2)cc1", "µM", "=", 24.5],
  ["COC(=O)/C(=C/CC(N=C(c1ccccc1)c1ccccc1)C(=O)OC)N=C(c1ccccc1)c1ccccc1 (stereo not drawn)", "µM", ">", 9.77],
  ["Cc1cc(N=O)cc(C)c1O", "µM", "=", 5.13],
  ["COC(=O)c1c(C)cc(OC(=O)c2c(C)cc(O)c(/C=N\\O)c2O)c(C)c1O", "µM", "=", 9.77],
  ["O=C(NC(=O)c1c(F)cccc1F)Nc1ncc(Cl)cc1Cl", "µM", ">", 200],
  ["CCCCCCCCCCCC[N+]12CC[N+](CCN)(CC1)CC2", "µM", "=", 56.2]
]}

###

System: CEM cells HIV-1 protection, formazan growth assay
EXPERIMENTAL_PROTOCOL: NCI AIDS Antiviral Assay

{"columns": ["COMPOUND", "EC50"],
 "data": [
  ["C[N+](C)(C)CC(CC(=O)[O-])C1CC1 (stereo unspecified)", "> 1350 µM"],
  ["Cn1c(=O)c2c(nc3n2CCC(=O)N3CCCCl)n(C)c1=O", "> 200 µM"],
  ["Cc1ccc(C=C(C(=O)O)C(=O)O)o1", "145 µM"],
  ["CC(C)(C)[Si](C)(C)OCC1OC(n2ccc(=O)[nH]c2=O)C(O[Si](C)(C)C(C)(C)C)C1CCN(O)CC1OC(n2ccc(=O)[nH]c2=O)C(O[Si](C)(C)C(C)(C)C)C1O[Si](C)(C)C(C)(C)C (stereo unspecified)", "> 100 µM"],
  ["CC(=O)c1cccc(NC(=O)C(=O)c2c(O)c3ccccc3oc2=O)c1", "> 708 µM"],
  ["COc1cc(N)c2c(c1)SC(C)C(=O)N2 (stereo unspecified)", "> 200 µM"],
  ["O=C1N(C2CCCCC2)CC2(Cc3ccccc3)c3ccccc3NC12O (stereo unspecified)", "> 20 µM"],
  ["CC(C)C(Sc1nc(-c2ccccc2)c(-c2ccccc2)[nH]1)C(=O)N/N=C/c1ccc([N+](=O)[O-])cc1 (stereo unspecified)", "> 14.5 µM"],
  ["O=c1ccc2cc3ccoc3c(OCCCCCCBr)c2o1", "> 75.9 µM"],
  ["CCN(CC)CCn1ccc(=O)c2cc3c(=O)ccn(CCN(CC)CC)c3c(C)c21", "> 17 µM"],
  ["COc1cc(OC)nc(-n2c(N)c(C#N)c3ccc([N+](=O)[O-])cc3c2=O)n1", "> 200 µM"],
  ["O=S(=O)(c1ccccc1)c1ccccn1", "75.9 µM"],
  ["CCOC(=S)NP(=O)(NC(=S)OCC)NC(=S)OCC", "> 200 µM"],
  ["Cc1cc(CO)c(O)c(CN(CC(=O)O)CC(=O)O)c1", "> 200 µM"],
  ["CCCCCCCCCCCCCCCCCCNc1ccn(C2OC(CO)C(OP(=O)(O)OCC3CCC(n4ccc(N)nc4=O)O3)C2O)c(=O)n1 (stereo unspecified)", "1.1 µM"],
  ["C[C@H](OCc1ccccc1)C(=O)N1CCS(=O)(=O)N2CCC[C@@H]2C1=O", "> 490 µM"],
  ["COc1ccccc1NC(=O)C(=O)C(C(=O)c1ccccc1F)C1OC(=O)c2ccccc21 (stereo unspecified)", "> 288 µM"],
  ["COc1ccccc1C(=O)NCC1CCCN2CCCCC12 (stereo unspecified)", "> 200 µM"],
  ["CNS(=O)(=O)NNS(=O)(=O)c1ccc(Cl)cc1", "> 120 µM"],
  ["O=C(CN1CCCCC1)OCOP(=O)(OCOC(=O)CN1CCCCC1)OCC1CCC(n2ccc(=O)[nH]c2=O)O1 (stereo unspecified)", "> 100 µM"],
  ["Nc1c(-c2ccccc2)oc2ccccc2c1=O", "> 200 µM"],
  ["CSc1nc(C)c(C(=O)CCN2CCN(c3ccccn3)CC2)s1", "> 87.1 µM"],
  ["Cc1ccc2nsnc2c1[N+](=O)[O-]", "> 257 µM"],
  ["CCOc1ccc(C(CN2CCOCC2)C(C)=O)cc1OC (stereo unspecified)", "> 724 µM"],
  ["O=C(Nc1ccc([N+](=O)[O-])cc1)C(=O)C(C(=O)c1ccccc1F)C1OC(=O)c2ccccc21 (stereo unspecified)", "> 204 µM"],
  ["COc1cccc(/C=C2/Sc3scc(-c4ccccc4)[n+]3C2=O)c1O", "> 200 µM"],
  ["CCN(CC)Cc1c(C(=O)NCCO)[n+](=O)c2ccccc2n1[O-]", "> 178 µM"],
  ["C=CCn1c(N)c(C#N)c(C#N)c1CCC", "> 200 µM"],
  ["c1cc2nnc1SCCCSc1ccc(nn1)SCCCSc1ccc(nn1)SCCCS2", "> 100 µM"],
  ["CN(C)c1ccc(SSc2ccc(N(C)C)cc2)cc1", "> 200 µM"],
  ["NCCCNCCCCNCCCNCc1c2ccccc2c(CNCCCNCCCCNCCCN)c2ccccc12", "> 1820 µM"],
  ["CC(=O)OCC12C(OC(C)=O)C[C@@H](C)C3(CC(c4ccoc4)OC3=O)C1CCC(OC(C)=O)C21CO1 (stereo partly specified)", "> 200 µM"],
  ["COC(=O)/C(C#N)=C/NC(=S)Nc1ccccc1", "> 200 µM"],
  ["CNC(=O)c1ccccc1CNC(=S)Nc1cccc(C)c1", "> 200 µM"],
  ["O=C1Nc2cc(Cl)ccc2N=CC1NC(=O)C(c1ccccc1)c1ccccc1Cl (stereo unspecified)", "> 295 µM"],
  ["CC(=O)Nc1ccc(S(=O)(=O)n2oc(=O)c(-c3ccccc3)c2N)cc1", "> 200 µM"]
]}
